system: DOHH2 cells; assay: Cell proliferation assay (MTS) in DOHH2 cells, mechanism-based assay for BTK inhibition; details: Homo sapiens, DOHH-2, 120 h incubation, 5000 cells/well
PROPERTY_NAME: IC50 (nM)
State just the number; it will be interpreted in nM.

Ask: What value of IC50 has been reported for the following compound? C=CC(=O)N1CC[C@H](c2nn(-c3ccc(Oc4cccc(F)c4F)cc3)c3c(N)n[nH]c(=O)c23)C1
Reply: 678

Ask: // repeat for C=CC(=O)N1CCC(c2cn(-c3ccc(Oc4ccccc4)cc3)c3c(N)n[nH]c(=O)c23)C1 (stereo not shown) and report
Reply: 36

Ask: What do we get for CC#CC(=O)N1CC[C@H](c2nn(-c3ccc(Oc4ccccc4)cc3)c3c(N)n[nH]c(=O)c23)C1 ?
Reply: 242

Ask: And C=CC(=O)N1CCC(c2nn(-c3ccc(Oc4c(F)cccc4F)cc3)c3c(N)n[nH]c(=O)c23)C1 (stereo not shown) ?
Reply: 182

Ask: Cool, now CC#CC(=O)N1CCC[C@@H](c2nn(-c3ccc(Oc4ccccc4)cc3)c3c(N)n[nH]c(=O)c23)C1
Reply: 863

Ask: Cool, now CC#CC(=O)N1CCC(c2cn(-c3ccc(Oc4c(F)cccc4F)cc3)c3c(N)n[nH]c(=O)c23)C1 (stereo not shown)
Reply: 250

Ask: Check CC#CC(=O)N1CC[C@@H](c2cn(-c3ccc(Oc4ccccc4)cc3)c3c(N)n[nH]c(=O)c23)C1 too.
Reply: 205

Ask: Next: COC/C=C/C(=O)N1CCC[C@@H](c2cn(-c3ccc(Oc4ccccc4F)cc3)c3c(N)n[nH]c(=O)c23)C1
Reply: 319

Ask: Further, for C=CC(=O)N1CCC[C@@H](c2cn(-c3ccc(Oc4cccc(F)c4)cc3)c3c(N)n[nH]c(=O)c23)C1 ?
Reply: 129

Ask: Ok, now C=CC(=O)N1CC[C@@H](c2nn(-c3ccc(Oc4ccccc4)cc3)c3c(N)n[nH]c(=O)c23)C1
Reply: 107

Ask: Consider next the compound CC#CC(=O)N1CCC[C@@H](c2cn(-c3ccc(Oc4c(F)cccc4F)cc3)c3c(N)n[nH]c(=O)c23)C1 in the same way.
Reply: 265

Ask: Next: C=CC(=O)N1CC(c2cn(-c3ccc(Oc4ccccc4)cc3)c3c(N)n[nH]c(=O)c23)C1
Reply: 473

Ask: Could you do the same for CN(C)C/C=C/C(=O)N1CCC[C@@H](c2cn(-c3ccc(Oc4ccccc4)cc3)c3c(N)n[nH]c(=O)c23)C1 , please?
Reply: 97

Ask: What would you report for CCN1CC[C@@H]1/C=C/C(=O)N1CCC[C@@H](c2cn(-c3ccc(Oc4ccccc4F)cc3)c3c(N)n[nH]c(=O)c23)C1 ?
Reply: 123

Ask: What about this compound? COC/C=C/C(=O)N1CCC[C@@H](c2cn(-c3ccc(Oc4ccccc4)cc3)c3c(N)n[nH]c(=O)c23)C1
Reply: 208

Ask: Param item: CC#CC(=O)N1CCC[C@@H](c2nn(-c3ccc(Oc4c(F)cccc4F)cc3)c3c(N)n[nH]c(=O)c23)C1
Reply: 435

Ask: Same lookup for C=CC(=O)N1CCC[C@@H](c2nn(-c3ccc(Oc4ccccc4)cc3)c3c(N)n[nH]c(=O)c23)C1 , please.
Reply: 40

Ask: Next entry: C=CC(=O)N1CC[C@H](c2cn(-c3ccc(Oc4c(F)cccc4F)cc3)c3c(N)n[nH]c(=O)c23)C1
Reply: 47

Ask: Try the compound CC#CC(=O)N1CC[C@@H](c2cn(-c3ccc(Oc4ccccc4F)cc3)c3c(N)n[nH]c(=O)c23)C1
Reply: 383

Ask: Okay, and C=CC(=O)N1CC[C@@H](c2cn(-c3ccc(Oc4cccc(F)c4)cc3)c3c(N)n[nH]c(=O)c23)C1 ?
Reply: 181

Ask: Can you check C=CC(=O)N1CCC[C@@H](c2cn(-c3ccc(Oc4ccccc4F)cc3)c3c(N)n[nH]c(=O)c23)C1 next?
Reply: 46

Ask: One more compound: C=CC(=O)N1CC[C@@H](c2cn(-c3ccc(Oc4cc(F)cc(F)c4)cc3)c3c(N)n[nH]c(=O)c23)C1
Reply: 86

Ask: Likewise for CC#CC(=O)N1CC[C@H](c2cn(-c3ccc(Oc4ccccc4F)cc3)c3c(N)n[nH]c(=O)c23)C1 ?
Reply: 124

Ask: Same lookup for C=CC(=O)N1CC[C@@H](c2nn(-c3ccc(Oc4ccccc4F)cc3)c3c(N)n[nH]c(=O)c23)C1 , please.
Reply: 146

Ask: Repeat for the following compound: C=CC(=O)N1CC[C@H](c2cn(-c3ccc(Oc4ccccc4F)cc3)c3c(N)n[nH]c(=O)c23)C1
Reply: 42

Ask: Could you do the same for C=CC(=O)N1CC[C@H](c2nn(-c3ccc(Oc4c(F)cccc4F)cc3)c3c(N)n[nH]c(=O)c23)C1 , please?
Reply: 215

Ask: Another compound to check: C=CC(=O)N1CC[C@@H](c2nn(-c3ccc(C(=O)Nc4ccccn4)cc3)c3c(N)n[nH]c(=O)c23)C1
Reply: 580

Ask: Moving on to the next compound: C=CC(=O)N1CCC(c2cn(-c3ccc(Oc4c(F)cccc4F)cc3)c3c(N)n[nH]c(=O)c23)C1 (stereo not shown)
Reply: 147

All figures here come from patent US10800785B2.
